B1: TPR 5TU (parent)
chain: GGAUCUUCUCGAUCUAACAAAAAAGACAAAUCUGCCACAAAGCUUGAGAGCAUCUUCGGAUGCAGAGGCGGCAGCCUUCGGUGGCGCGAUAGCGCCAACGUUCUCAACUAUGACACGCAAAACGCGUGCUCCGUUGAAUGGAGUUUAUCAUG

# Variants of: B1
# method.notes: polymerase ribozyme fitness, log enrichment relative to wild type (log ratio); higher = more active; in vitro selection for triplet polymerase activity
Variants at the floor of the assay were thinned out.
measured.endpoint: polymerase ribozyme fitness (log ratio)
Reply with the value as a number alone.

Solved entries (count: 5):
Sample G59A A60G ; polymerase ribozyme fitness (log ratio) observed: -0.0653

The variant identified as A16U A47G C51U C95A C114U registered its polymerase ribozyme fitness (log ratio) at -3.93

Value of polymerase ribozyme fitness (log ratio) reported for the variant A60C C105G is -3.44

polymerase ribozyme fitness (log ratio) reading for G62A C93G U130C : -3.01

Just so you know, measured polymerase ribozyme fitness (log ratio) for A21G A73G C85A C103U A122U came out at -1.86

Then this variant:
polymerase ribozyme fitness (log ratio) for C87U C132U is -1.11
